Subject Of Test: Leucine-rich repeat serine/threonine-protein kinase 2 (Homo sapiens)
Measurement Setup: at 1 µM
# inhibition per entry
Answer with a number only, understood to be in %.

- CS(=O)(=O)CCNCc1coc(-c2ccc3ncnc(Nc4ccc(OCc5ccccc5)cc4)c3c2)c1: 5.65
- CNC(=O)c1cccc(C#Cc2cncnc2Nc2ccc(OCc3cccc(F)c3)c(Cl)c2)c1: 3.48
- CNC(=O)c1cncc(/C=C/c2ccccc2Cl)c1: 4.57
- c1ccc(-c2nc3n(c2-c2ccc4c(c2)OCO4)CCC3)nc1: 3.89
- COc1ccc(-c2oc3ncnc(N)c3c2-c2ccc(NC(=O)Nc3cc(C(F)(F)F)ccc3F)cc2)cc1: 15
- Cc1ccc(O)cc1Nc1ccnc2cc(-c3ccccn3)ccc12: 11.4
- CCn1c(-c2nonc2N)nc2c(C#CC(C)(C)O)nc(OC[C@H](N)c3ccccc3)cc21: 29.8
- N#Cc1c(NC(=O)c2ccc(F)cc2)sc2c1CCCC2: 1.04

stdin: Write inhibition of `COc1ccc2c(-c3ccnc(Nc4cccc(OC(F)(F)F)c4)n3)cnn2n1` ; system used: Leucine-rich repeat serine/threonine-protein kinase 2 (Homo sapiens)
stdout: 14.5

stdin: Write inhibition of `[O-][S+]1CCN(Cc2ccc(-c3ccc4ncnc(Nc5ccc(OCc6cccc(F)c6)c(Cl)c5)c4c3)o2)CC1` ; system used: Leucine-rich repeat serine/threonine-protein kinase 2 (Homo sapiens);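 also: mean percent inhibition of LRRK2 measured in the GSK PKIS kinase inhibitor set screen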
stdout: 3.96
